Numbers sourced from PubChem BioAssay (NCATS).

MEASURED TARGET: Catechol O-methyltransferase (Homo sapiens) (UniProt P21964)
Sequence (P21964 whole entry, looked up): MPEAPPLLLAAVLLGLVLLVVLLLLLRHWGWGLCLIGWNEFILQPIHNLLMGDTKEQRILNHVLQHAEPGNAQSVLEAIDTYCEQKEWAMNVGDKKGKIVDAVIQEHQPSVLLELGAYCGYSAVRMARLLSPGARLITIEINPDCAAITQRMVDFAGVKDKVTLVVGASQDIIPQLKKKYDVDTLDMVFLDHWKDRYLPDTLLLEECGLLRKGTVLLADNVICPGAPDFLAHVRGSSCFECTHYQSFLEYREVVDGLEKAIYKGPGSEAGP
ASSAY OVERVIEW: Confirmatory Screen for Target Class Profiling of Small Molecule Inhibitors of Methyltransferases (AID 1745852)
CONDITION: MTase-Glo luminescence, SAH detection, recombinant enzyme; measured here: COMT max response; stronger effect = lower value
Lab note: anything with activity below -70% is marked 1; values at -70% or higher are marked 0.

**Q:** In the record for `N#Cc1cccc(-c2c[nH]c3ncnc(N4CCOCC4)c23)c1` , is activity less than -70%?
**A:** 1

**Q:** Queued: `O=C(/C=C/c1ccc(O)cc1)OC[C@@]1(O)C=C[C@@H]2C(C(=O)O)=CO[C@@H](O[C@@H]3O[C@H](CO)[C@@H](O)[C@H](O)[C@H]3O)[C@@H]21`
**A:** 0

**Q:** Next compound: `CCOc1ccc(-c2cc(NC(=O)c3c(F)cccc3F)c(C(=O)O)s2)cc1`
**A:** 0

**Q:** // repeat for `C[C@]1(C2CCCC2)Cc2cc(OCC(=O)O)c(Cl)c(Cl)c2C1=O` and report
**A:** 0

**Q:** Here is the next compound: O=C(O)CC1(O)C(=O)Nc2ccccc21 (stereo not drawn)
**A:** 0

**Q:** Likewise for `COC(=O)[C@H](Cc1cccc(C(=N)N)c1)[C@@H](C)NC(=O)c1ccc(-c2cc[n+]([O-])cc2)cc1` ?
**A:** 0

**Q:** What do you have for `C=C1CC/C=C(/CO)C(=O)C[C@@H]2[C@@H]1C[C@@]2(C)COC(C)=O` ?
**A:** 0

**Q:** Ok, now `CC(=O)OC/C(=C/C(=O)O)CC[C@@H]1C(C)=CC(=O)[C@@H]2C(C)(C)CCC[C@@]12C`
**A:** 0

**Q:** # iterate: `CC(C)N(CCCNC(=O)Nc1ccc(C(C)(C)C)cc1)C[C@H]1O[C@@H](n2ccc3c(N)ncnc32)[C@H](O)[C@@H]1O`
**A:** 0

**Q:** // next record CC(C)(O)C1CC=C(C(=O)OC[C@H]2O[C@@H](OC(=O)C3=CCC(C(C)(C)O)CC3)[C@H](O)[C@@H](O)[C@@H]2O)CC1 (stereo partly drawn)
**A:** 0

**Q:** Query COc1c2cc(c(O[C@@H]3O[C@H](CO)[C@@H](O)[C@H](O)[C@H]3O)c1OC)CCCCC(O)CCc1ccc(O)c-2c1 (stereo partly drawn) next
**A:** 1

**Q:** Next record, please: `O=c1[nH]ccc2nc(-c3ccc(CN4CCC(c5nc(-c6ccccn6)n[nH]5)CC4)cc3)c(-c3ccccc3)cc12`
**A:** 0

**Q:** Repeat with CC(C)=C1CC2C(CCC2(C)O)C(C)(O)CC1=O (stereo not drawn)
**A:** 1

**Q:** Next: COc1cc(C2Oc3c(OC)cc(CCCO)cc3C2CO)ccc1O (stereo not drawn)
**A:** 1

**Q:** Follow-up item: CC1=C2CC3C(CCC3(C)O)C(C)(O)CC2OC1=O (stereo not drawn)
**A:** 1

###

ASSAY OVERVIEW: Primary fluorescence-based thiol-reactive (MSTI) qHTS assay for identification of artifact compounds. (AID 1845221); also: nearly all actives have a fitted effect of over 65% in size
CONDITION: MSTI thiol-reactivity probe, 1 h; series mostly up to 53.8 µM
Description: PI: Alexander Tropsha Ph.D. UNC Eshelman School of Pharmacy University of North Carolina, Chapel Hill, North Carolina Hits from high-throughput screening (HTS) of chemical libraries are often false positives due to their interference with the assay detection technology. […] Using these curated datasets, we developed and validated several Quantitative Structure-Interference Relationship (QSIR) models to predict nuisance behavior. […]
Inconclusive results are not listed. Activity calls are given as the source filed them. Calls follow the shape of the dose curve; as a rule, active = well fitted inhibition curve with a large enough effect; inconclusive = small, poorly fitted or top-dose-only effect; inactive = no such curve, though single readings can be large or run the other way.
Entry note: the call must match one of active, inactive

**Q:** For `Cc1ccccc1-c1cc(N2CCN(C)CC2)ncc1N(C)C(=O)C(C)(C)c1cc(C(F)(F)F)cc(C(F)(F)F)c1` , which call appears in the assay record?
**A:** inactive

**Q:** Then CC1(C)C[C@@H]2[C@H](C1)[C@@]1(C)C[C@]13C(O)OC[C@]3(O)[C@H]2O (stereo partly drawn) ?
**A:** inactive

**Q:** Again, but for C=C1C(O)C(OC(=O)c2ccccc2)C2C(C)(C(=O)O)CCCC2(C)C1CC/C(C)=C\CO (stereo not drawn)
**A:** inactive

**Q:** Repeat with `Cc1nnc(-c2sc(NC(=O)[C@H](C(C)C)n3c(=O)[nH]c4ccccc4c3=O)nc2C)o1`
**A:** inactive

**Q:** Next record, please: CC1=C2CC3C(CCC3(C)O)C(C)(O)CC2OC1=O (stereo not drawn)
**A:** active

**Q:** Would you mind doing `C[C@@H]1O[C@@H](O[C@H]2[C@@H]3C=CO[C@@H](O[C@@H]4O[C@H](CO)[C@@H](O)[C@H](O)[C@H]4O)[C@@H]3[C@@]3(CO)O[C@@H]23)[C@H](O)[C@H](OC(=O)/C=C/c2ccc(O)c(O)c2)[C@H]1O` as well?
**A:** active

**Q:** Repeat for the following compound: Cc1occc(=O)c1O[C@@H]1O[C@H](COC(=O)CC(C)(O)CC(=O)O)[C@@H](O)[C@H](O)[C@H]1O (stereo partly drawn)
**A:** inactive

**Q:** Similarly, `CN1C(=O)N(c2cc(Cl)cc(Cl)c2)C(=O)[C@@]1(C)Cc1ccc(Br)cc1` ?
**A:** inactive
